Molecular target: peptide P2
Test: Apparent KD of lead quencher dyes with peptide P2 (quenching of pyrene fluorescence)
Details: 5 μM pyrene-labeled P2 peptide, dye 0.5-500 μM, 100 mM Tris HCl pH 75, inner filter corrected
OBSERVABLE: Kd (µM)
Answer with a number only, understood to be in µM.

Reference set, count: 6
O=S(=O)(O)c1ccc(/N=N/c2ccc(/N=N/c3c(O)c(S(=O)(=O)O)cc4cc(S(=O)(=O)O)ccc34)c(S(=O)(=O)O)c2)cc1 [Peptide D42, Ponceau S]	11.2
O=[N+]([O-])c1ccc2c(N=Nc3ccc4ccccc4c3O)c(O)cc(S(=O)(=O)O)c2c1 [Peptide D18, Eriochrome Black T]	14.3
Cc1cc(-c2ccc(/N=N/c3ccc4c(S(=O)(=O)O)cc(S(=O)(=O)O)c(N)c4c3O)c(C)c2)ccc1/N=N/c1ccc2c(S(=O)(=O)O)cc(S(=O)(=O)O)c(N)c2c1O [Peptide D3, Evans Blue]	2.8
O=C(O)c1c(Cl)c(Cl)c(Cl)c(Cl)c1-c1c2cc(I)c(=O)c(I)c-2oc2c(I)c(O)c(I)cc12 [Peptide D43, Rose Bengal]	7.5
O=C(O)c1nn(-c2ccc(S(=O)(=O)O)cc2)c(O)c1N=Nc1ccc(S(=O)(=O)O)cc1 [Peptide D47, Tartrazine]	15
Cc1cc(-c2ccc(/N=N/c3c(S(=O)(=O)O)cc4cc(S(=O)(=O)O)cc(N)c4c3O)c(C)c2)ccc1/N=N/c1c(S(=O)(=O)O)cc2cc(S(=O)(=O)O)cc(N)c2c1O [Peptide D48, Trypan Blue]	11.9

Please find the next compound below.
Quickly give me recorded Kd for Nc1ccc(N=Nc2ccc(-c3ccc(N=Nc4c(S(=O)(=O)O)cc5cc(S(=O)(=O)O)c(N=Nc6ccccc6)c(O)c5c4N)cc3)cc2)c(N)c1 [Peptide D34, Chlorazol Black E] 7.7
